Measured inhibition by item
- Assayed target: Cholinesterase (Equus caballus)
- Assay comment: Inhibition of equine BuChE at 100 uM using […] as substrate incubated for 29 mins by Ellman's method relative to control

{"columns": ["Test smiles", "Unit descriptor", "inhibition"],
 "data": [
  ["CO[C@H]1C[C@H](O[C@H]2CC[C@@]3(C)C(=CCC(=O)[C@@H]3C[C@@H](OC(C)=O)[C@@]3(C)C(=O)CC[C@H]3C(C)=O)C2)O[C@H](C)[C@H]1O[C@H]1C[C@@H](OC)[C@H](O)[C@@H](C)O1", "%", 2.64],
  ["CC(=O)O[C@H](C[C@H]1C(=O)CC=C2C[C@@H](O)CC[C@@]21C)[C@@]1(C)C(=O)CC[C@H]1C(C)=O", "%", 7.72],
  ["CO[C@H]1C[C@H](O[C@H]2[C@@H](OC)C[C@H](O[C@H]3CC[C@@]4(C)C(=CCC(=O)[C@@H]4C[C@@H](OC(C)=O)[C@@]4(C)C(=O)CC[C@H]4C(C)=O)C3)O[C@@H]2C)O[C@H](C)[C@H]1O", "%", 13.5],
  ["C[C@@]1([C@@H](C[C@H]2C(=O)CC=C3C[C@@H](O)CC[C@@]32C)OC(=O)c2ccccc2)C(=O)[C@@]2(C)CC[C@@H]1O2", "%", 14]
]}

====

- Tested on: NFF
- Assay comment: Cytotoxicity against human NFF cells assessed as cell growth inhibition measured after 6 days by SRB assay
- Format: functional, cell-based
- Condition context: 144 h

{"columns": ["Test smiles", "IC50"],
 "data": [
  ["C[C@@]1([C@@H](C[C@H]2C(=O)CC=C3C[C@@H](O)CC[C@@]32C)OC(=O)c2ccccc2)C(=O)[C@@]2(C)CC[C@@H]1O2", "> 10 µM"]
]}

====

- Test system: MCF7
- Assay comment: Cytotoxicity against human MCF7 cells assessed as cell growth inhibition measured after 6 days by SRB assay
- Type: functional, cell-based
- Condition context: MCF7, 144 h
pIC50: −log10 of the molar value.

{"columns": ["Test smiles", "pIC50"],
 "data": [
  ["C[C@@]1([C@@H](C[C@H]2C(=O)CC=C3C[C@@H](O)CC[C@@]32C)OC(=O)c2ccccc2)C(=O)[C@@]2(C)CC[C@@H]1O2", "< 5.00"]
]}

====

- Test system: MM96L
- Assay comment: Cytotoxicity against human MM96L cells assessed as cell growth inhibition measured after 6 days by SRB assay
- Assay type: functional, cell-based
- Condition context: 144 h
pIC50: −log10 of the molar value.

{"columns": ["Test smiles", "Assayed target", "pIC50"],
 "data": [
  ["C[C@@]1([C@@H](C[C@H]2C(=O)CC=C3C[C@@H](O)CC[C@@]32C)OC(=O)c2ccccc2)C(=O)[C@@]2(C)CC[C@@H]1O2", "MM96L", "< 5.00"]
]}
